Readings of TGI for the listed molecules
# Test system: OVCAR-5 ovarian
# experiment: NCI tumour cell line growth inhibition, 48 h

Guide cases for TGI, answers given:
molecule	TGI
O=C(CN(/C=C/C(=O)C(F)(F)F)c1ccc(Cl)cc1)c1ccc(Cl)c(Cl)c1	27.1 µM
COc1cccc(C2c3cc4c(cc3OC(Nc3ccccc3)C2C)OCO4)c1O (stereo not given)	> 93.8 µM
O=C1CSC(c2ccccc2Cl)N1c1nnc(Cn2cnnc2)o1 (stereo not given)	44.3 µM
COc1ccccc1C1C(C#N)=C(N)Oc2n[nH]c(C)c21 (stereo not given)	> 100 µM
CC(=O)C(C)(C)CCC(C)(C)C(C)=O	> 100 µM
CS(=O)(=O)OCCCNCCCOS(C)(=O)=O	6290 µM

Problem: Sample `O=C(O)/C=C\C(=O)Nn1c(Cc2ccc(Cl)cc2)n[nH]c1=O` — what was its TGI?
Solution: > 100 µM

Problem: Sample `Cc1c(C(=O)O)n(C)c(=O)n(C)c1=O` — what was its TGI?
Solution: > 100 µM

Problem: Given `CCN(CC)C(=O)CCN1CC1` , state its recorded TGI.
Solution: > 10 µM

Problem: // returns reported TGI for input CC1(C)Oc2ccc3c(=O)cc(-c4ccccc4)oc3c2C1C(=O)O (stereo not given)
Solution: > 100 µM

Problem: Requested read-out: TGI. Entry: Cc1ccccc1NC(=O)CC(=O)NNC(Sc1ccccc1)c1cc(N=Nc2ccc(Br)cc2)ccc1O (stereo not given)
Solution: > 10 µM

Problem: Need TGI, item CCC(=O)OC1CCn2c1nc1c2C(=O)C(C)=C(NC(C)=O)C1=N (stereo not given)
Solution: 3.47 µM

Problem: Would you kindly share the measured TGI for `CC(C)OC(=S)Nc1ccc(Cl)c(/C=N/OC(C)(C)C)c1` ?
Solution: 30.8 µM

Problem: Which value of TGI has been reported for `CC(C)CCOC(=O)NC(Nc1ccc(F)cc1)(C(F)(F)F)C(F)(F)F` in the records?
Solution: > 100 µM

Problem: Please give the measured TGI for this molecule: `Clc1ccc(C2=CCN3CC=C(c4ccc(Cl)cc4)C23)cc1`
Solution: 17 µM

Problem: # query: TGI of entry `CCOC(=O)/C(=C/c1cccc(Cl)c1)N(CC)CC`
Solution: > 100 µM

Problem: Consider the molecule shown here: CN(C)CC1CC/C(=C\c2ccc3c(c2)OCO3)C1=O (stereo not given) What is its recorded TGI?
Solution: 39.3 µM

Problem: Param item = CC1CCC2(OC1)OC1C(O)C3C4CCC5CC(OC6OC(CO)C(OC7OC(CO)C(O)C(OC8OCC(O)C(O)C8O)C7OC7OC(CO)C(O)C(OC8OC(CO)C(O)C(O)C8O)C7O)C(O)C6O)C(O)CC5(C)C4CCC3(C)C1C2C (stereo not given) ; retrieve measured TGI.
Solution: 4.12 µM

Problem: Query (molecule): C=C1CC(C)(c2cccc(Nc3nc4ccccc4c4occc34)c2)OC1=O (stereo not given) ; field requested: TGI
Solution: 31.7 µM

Problem: Query: TGI; subject: O=C(O)c1cccc(NC(C(=O)c2ccccc2)c2ccccc2)c1 (stereo not given)
Solution: > 100 µM

Problem: Please report the recorded TGI for `S=C1Cc2c(-c3ccc(Br)cc3)cc(-c3ccccc3)nc2-c2ccccc2N1` .
Solution: 14.4 µM

Problem: Suppose we examine the molecule `CCOC(=O)C1=C(O)c2ccc(C)cc2C(=O)C1=O` ; what TGI value has been reported?
Solution: > 100 µM

Problem: What value of measured TGI is listed for CCN(CC)CCCC(C)Nc1cc(-c2cccc(OC(F)(F)F)c2)nc2ccc(N3CCCC3)cc12 (stereo not given) ?
Solution: > 100 µM

Problem: Which TGI reading was recorded for the molecule `Cc1ccc(N=C[N-]c2ccc(C)cc2)cc1.Cc1ccc(N=C[N-]c2ccc(C)cc2)cc1.O=C([O-])C(F)(F)F.O=C([O-])C(F)(F)F.[OH3+].[OH3+].[Rh+2].[Rh+2]` ?
Solution: > 100 µM

Problem: Endpoint output: TGI of `COc1ccc(-c2ccc(/C=N/n3c(COc4ccccc4Cl)nn(CN4CCOCC4)c3=S)o2)c([N+](=O)[O-])c1` . Value?
Solution: > 100 µM

Problem: Quick one: TGI for `Cc1ccc(-c2nc(/C=N/Nc3cc(C)nc4ccc(Cl)cc34)c(C)o2)cc1` ?
Solution: 3.39 µM

Problem: Item `Cn1cc(C2=C(c3c[nH]c4ccccc34)C(=O)NC2=O)c2ccccc21` has what recorded TGI?
Solution: > 25 µM

Problem: Which TGI is reported for this molecule? `COC(=O)c1c(-c2cccs2)oc(-c2cccs2)c1C(=O)OC`
Solution: > 100 µM

* * *

Catalogue of molecules with associated TGI
# Tested on: SF-268 CNS
# experiment: NCI tumour cell line growth inhibition, 48 h

Check out these entries, answers already filled in.
molecule	TGI
Cc1nc(-c2cc3ccccc3oc2=O)cs1	> 100 µM
COc1cc(Oc2nc3cc(F)c(F)cc3nc2-c2ccccc2)cc(OC)c1OC	> 100 µM

Problem: Which TGI value is on record for `NCCSCCC(=O)O` ?
Solution: > 100 µM

Problem: Fill blank: measured TGI of the molecule `COc1ccc(-c2cncn2-c2cc(OC)c(OC)c(OC)c2)cc1` is ____.
Solution: 59.7 µM

Problem: Consider the molecule shown here: `Cc1ccc(N=C[N-]c2ccc(C)cc2)cc1.Cc1ccc(N=C[N-]c2ccc(C)cc2)cc1.O=C([O-])C(F)(F)F.O=C([O-])C(F)(F)F.[OH3+].[OH3+].[Rh+2].[Rh+2]` What is its recorded TGI?
Solution: 81.6 µM

Problem: Give its TGI value. Item: `CCNc1cc2c3c(c1)CCN3CCC2`
Solution: > 10 µM

Problem: Which TGI value belongs to CCOc1cc2c(cc1O)C(O)C[C@@H]1[C@@H]2CC[C@]2(C)[C@@H](O)CC[C@@H]12 (stereo not given in full) ?
Solution: > 100 µM

Problem: Could you share which TGI value was measured for `O=C(O)/C(Cc1ccnc2ccccc12)=N\O` ?
Solution: > 100 µM

Problem: So what does the record say about TGI for `CS(=O)(=O)c1ccc(Nc2nc(N[C@H]3CCCC[C@H]3N)nc3cc[nH]c(=O)c23)cc1` ?
Solution: 4.26 µM

Problem: Record request: TGI value, item `COC(=O)c1c(-c2cccs2)oc(-c2cccs2)c1C(=O)OC`
Solution: > 100 µM

* * *

# Test system: SNB-75 CNS
# experiment: NCI tumour cell line growth inhibition, 48 h
property-name: TGI (µM)
Write the value in µM as a bare number.

See these solved cases before continuing.
smiles-string	TGI / µM
CSc1nc2nc3c(nc2c(=O)n1C)C(=O)c1ccccc1C3=O	0.266
O=[Se](O)O	7.55
Cn1c(=O)sc2cc(C(=S)N3CCCCC3)ccc21	86.5
COc1ccc(/C=C/c2c(C(=O)/C=C/c3ccc(C(F)(F)F)cc3)c(C)nc3ccccc23)cc1	2.85
O=c1c2nc(-c3ccccc3)oc2n(-c2ccccc2)c(=O)n1-c1ccccc1	31.2
C#Cc1cccc(Nc2nc(Cl)nc3cc(NC(=O)CCl)ccc23)c1	5.13

Problem: Form field: reported TGI of `CCCCCCCCOc1ccc(/C=C/C2=[N+](CCO)CCO2)cc1`
Solution: 9.2

Problem: // TGI lookup, key: `CC1(C)CC[C@]2(C(=O)O)CC[C@]3(C)[C@H](C(=O)C=C4[C@@]5(C)C=C(C#N)C(=O)C(C)(C)[C@@H]5CC[C@]43C)[C@@H]2C1`
Solution: 2.84

* * *

# System: MDA-MB-231 breast
# experiment: NCI tumour cell line growth inhibition, 48 h
Label rule, in plain words: TGI of 30 µM and up is Yes, under 30 µM is No.

Answered cases to consult:
smiles-string	class-label
ClCc1ccccc1Cn1cnc2ncnc(Cl)c21	No
COc1ccc(-c2cncn2-c2cc(OC)c(OC)c(OC)c2)cc1	No
COC(=O)Nc1nc2ccccc2[nH]1	Yes
Cc1c([C@H](C)[C@@H]2NC[C@@H](C)C[C@H]2O)ccc2c1C[C@H]1[C@H]2CC=C2C[C@@H](O)CC[C@@]21C	Yes

Problem: TGI >= 30 µM for `O=C(OCc1ccccc1)N1CCNCCNCCN(C(=O)OCc2ccccc2)CCNCC1` ?
Solution: Yes

* * *

Listed here are molecules together with their documented TGI.
# Tested on: MDA-MB-231 breast
# experiment: NCI tumour cell line growth inhibition, 48 h
Give just the numeric value; µM need not be written.

molecule	unit-name	TGI
COc1ccccc1S(=O)(=O)Nc1ccc2c3c(cc(CCC(=O)NCCCCNc4cccc5c4C(=O)N(C4CCC(=O)NC4=O)C5=O)cc13)C(=O)N2C (stereo not given)	µM	0.295
O=C1CSC(c2ccccc2Cl)N1c1nnc(Cn2cnnc2)o1 (stereo not given)	µM	29.9

Could you now look at the following molecule, please?
Problem: I am curious: what TGI value has been reported for `CC/C(Cc1ccccc1)=C(\c1ccc(OCCN2CCCC2)cc1)c1ccc(OC(=O)NCc2ccccc2)cc1` ?
Solution: 3.35
